test summary: Double-blind randomized crossover pharmacokinetic study, single oral 900 μg vitamin D3 or 25(OH)D3
Type: in vivo, human
recorded conditions: both sexes, human, in vivo, po, 900 μg, healthy participants with lower BMI (N = 5); single oral 900 μg; mean ± SEM; read-out: Ctrough (trough level at day 14)
property measured: concentration at 14 days (ng/mL)
Just the number in ng/mL, nothing appended.

Query: So what does the record say about concentration at 14 days for C=C1CC[C@H](O)C/C1=C/C=C1\CCC[C@]2(C)[C@@H]([C@H](C)CCCC(C)C)CC[C@@H]12 ?
Response: 0.6

----------
test summary: Double-blind randomized crossover pharmacokinetic study, single oral 900 μg vitamin D3 or 25(OH)D3
Assay type: in vivo, human
recorded conditions: both sexes, human, in vivo, po, 900 ug, healthy participants with higher BMI (N = 5); single oral 900 μg; mean ± SEM
property measured: Cmax
Record the result as a number with its unit.

Query: Looking for the measured Cmax of C=C1CC[C@H](O)C/C1=C/C=C1\CCC[C@]2(C)[C@@H]([C@H](C)CCCC(C)C)CC[C@@H]12 , can you help?
Response: 44.4 ng/mL
